The following compounds are listed with their measured selectivity ratio values.
assay: Selectivity ratio of ED50 for inhibition of gastrointestinal motility in fasted Kunming mouse model treated subcutaneously to ED50 for antinociceptive activity in Kunming mouse model administered subcutaneously by tail-flick test
Assay type: toxicity
condition_notes: in vivo, route sc, read-out: Ratio ED50
Answer field: number only, no words.

NC(=O)[C@H]1CCCN1C(=O)[C@@H]1CC(=O)NCCCC[C@@H](NC(=O)[C@@H](N)Cc2ccc(O)cc2)C(=O)NCC(=O)N[C@@H](Cc2ccc(F)cc2)C(=O)N1 :: 55

Moving on to the next compound.
Field request: selectivity ratio | item: CN1C(=O)CNC(=O)[C@H](NC(=O)[C@@H](N)Cc2ccc(O)cc2)CCCCNC(=O)C[C@@H](C(=O)N2CCC[C@@H]2C(N)=O)NC(=O)[C@@H]1Cc1ccccc1
54
